# System: MDA-MB-435 melanoma
# PROTOCOL_SUMMARY: NCI-60 one-dose screen, 48 h (100 = growth as untreated, 0 = no growth, -100 = all killed)
# CONDITION_SET: 10 µM unless noted
The panel holds about 83,000 compounds, 20% with a hit somewhere; the sample as a whole holds those more often.
RECORDED_METRIC: growth (%)
Note: unit % is implicit; provide only the numeric part.

The examples below pair each entry with its known result.
[
  {
    "COMPOUND": "O=c1[nH]c(-c2cn(-c3ccc(Cl)cc3)nn2)nc2ccccc12",
    "UNITS": "%",
    "growth": 77.2
  },
  {
    "COMPOUND": "CCC(=O)Nc1ccccc1C#C/C=C\\C#Cc1ccccc1SC",
    "UNITS": "%",
    "growth": -16.5
  },
  {
    "COMPOUND": "CCCCCCCN(CCCCCCC)C(=N)c1ccc(OC)c2ccccc12",
    "UNITS": "%",
    "growth": -98.7
  },
  {
    "COMPOUND": "O=S(=O)(NCCCNc1nccc(-c2c(-c3ccc(F)c(O)c3)nc3sccn23)n1)c1ccc(Cl)cc1",
    "UNITS": "%",
    "growth": 32.5
  },
  {
    "COMPOUND": "COc1ccc2c(c1)C=CC(C#N)N2C(=O)c1ccccc1 (stereo unspecified)",
    "UNITS": "%",
    "growth": -52.4
  }
]

// switching to the query compound
growth in this record for `c1ccc2nc(-c3ccc4ccccc4n3)ccc2c1` : 91.9

----------
# System: BT-549 breast
# PROTOCOL_SUMMARY: NCI-60 one-dose screen, 48 h (100 = growth as untreated, 0 = no growth, -100 = all killed)
# CONDITION_SET: 10 µM unless noted
This is part of a sample that, as a whole, favours compounds with a hit. Of some 83,000 tested, about 20% had one in any assay.
RECORDED_METRIC: growth (%)
Note: unit % is implicit; provide only the numeric part.

The examples below pair each entry with its known result.
[
  {
    "MOLECULE": "O=C(CN1CCN(c2cc3c(cc2F)c(=O)c(C(=O)O)cn3C2CC2)CC1)Nc1ccc(C(=O)/C=C/c2ccc(Cl)cc2)cc1",
    "TARGET_OR_SYSTEM": "BT-549 breast",
    "RECORDED_METRIC": "growth",
    "ENDPOINT_VALUE": 91.1
  },
  {
    "MOLECULE": "Cc1cc2c(c(=O)o1)C(c1ccc(OC(=O)N3CCOCC3)cc1)C(C#N)=C(N)O2 (centres undefined)",
    "TARGET_OR_SYSTEM": "BT-549 breast",
    "RECORDED_METRIC": "growth",
    "ENDPOINT_VALUE": 104
  },
  {
    "MOLECULE": "Cc1nc(Nc2cccnc2)sc1C(=O)/C=C/c1ccc(F)cc1",
    "TARGET_OR_SYSTEM": "BT-549 breast",
    "RECORDED_METRIC": "growth",
    "ENDPOINT_VALUE": 1.57
  },
  {
    "MOLECULE": "COc1cccc(NC(=O)Cn2cc3c(=O)oc4ccccc4c3n2)c1",
    "TARGET_OR_SYSTEM": "BT-549 breast",
    "RECORDED_METRIC": "growth",
    "ENDPOINT_VALUE": 94.5
  },
  {
    "MOLECULE": "CSc1ccccc1C#C/C=C\\C#Cc1ccccc1N1CCCC1=O",
    "TARGET_OR_SYSTEM": "BT-549 breast",
    "RECORDED_METRIC": "growth",
    "ENDPOINT_VALUE": 69.7
  },
  {
    "MOLECULE": "CCC(=O)Oc1ccc2c(c1)CC[C@@H]1[C@@H]2CC[C@]2(C)C[C@H](OC(=O)CC)C[C@@H]12",
    "TARGET_OR_SYSTEM": "BT-549 breast",
    "RECORDED_METRIC": "growth",
    "ENDPOINT_VALUE": 60.1
  },
  {
    "MOLECULE": "COc1cc2oc(-c3cccc(NC(=O)Nc4ccc5c(c4)OCO5)c3)cc(=O)c2c(OC)c1OC",
    "TARGET_OR_SYSTEM": "BT-549 breast",
    "RECORDED_METRIC": "growth",
    "ENDPOINT_VALUE": 59.8
  },
  {
    "MOLECULE": "Cc1ccc2c(c1)C(C)Cc1c(N(C)C)ncnc1N2C (centres undefined)",
    "TARGET_OR_SYSTEM": "BT-549 breast",
    "RECORDED_METRIC": "growth",
    "ENDPOINT_VALUE": 30.6
  }
]

growth in this record for CCN1C(=O)N(CC)C2C1NN=c1s/c(=C\c3ccccn3)c(=O)n12 (centres undefined) : 80

growth in this record for `CCCCCCCCCCCCOB(OCCCCCCCCCCCC)OCCCCCCCCCCCC` : 96.7

growth in this record for O=c1cc(C2NCCc3c2[nH]c2ccccc32)c2c(ccc3ccccc32)o1 (centres undefined) : 82

----------
# Test system: OVCAR-8 ovarian
# PROTOCOL_SUMMARY: NCI-60 one-dose screen, 48 h (100 = growth as untreated, 0 = no growth, -100 = all killed)
# CONDITION_SET: 10 µM unless noted
Compounds without any hit were thinned out: in the full panel of roughly 83,000, 20% have a hit.
Binning rule for recorded growth: bottom = under 50%, middle = from 50% up to 90%, top = 90% and over

Please review the entries below; each comes with its answer.
[
  {
    "COMPOUND": "CSc1ccccc1C#C/C=C\\C#Cc1ccccc1N1CCCCC1=O",
    "CLASS_LABEL": "top"
  },
  {
    "COMPOUND": "O=C(c1ccncc1)N1N=C(c2ccc(Cl)cc2)CC1c1c[nH]c2ccccc12 (centres undefined)",
    "CLASS_LABEL": "top"
  },
  {
    "COMPOUND": "O=C(CN1CCN(c2cc3c(cc2F)c(=O)c(C(=O)O)cn3C2CC2)CC1)Nc1ccc(C(=O)/C=C/c2ccc(Cl)cc2)cc1",
    "CLASS_LABEL": "top"
  },
  {
    "COMPOUND": "O=S(=O)(NCCCNc1cc(-c2cn(-c3ccccc3)nc2-c2cccc(O)c2)ccn1)c1ccc(Br)cc1",
    "CLASS_LABEL": "bottom"
  },
  {
    "COMPOUND": "NS(=O)(=O)c1ccc(NCC(=O)Nc2ccc(-c3nc4ccccc4s3)cc2)cc1",
    "CLASS_LABEL": "middle"
  }
]

// query Please classify: `Cc1cc(C)c(S(=O)(=O)N2CCN(c3cc4c(cc3F)c(=O)c(C(=O)O)cn4C3CC3)CC2)c(C)c1`
// result middle

// query Please classify: `O=c1oc2cc(OS(=O)(=O)c3ccc(F)cc3)ccc2c2c1CCCCC2`
// result middle

// query Please classify: `COc1cc(-c2n[nH]nc2-c2ccc3c(c2)OCCO3)cc(OC)c1OC`
// result bottom

// query Please classify: `COc1cccc(/C=C/C(=O)c2sc(Nc3ccc(O)cc3)nc2C)c1`
// result top

// query Please classify: `N#Cc1c(NC(=O)c2ccc([N+](=O)[O-])o2)[n+]([O-])c2cc(F)c(F)cc2[n+]1[O-]`
// result middle

----------
The reader will find reported growth values listed item by item below.
# Tested on: M14 melanoma
# PROTOCOL_SUMMARY: NCI-60 one-dose screen, 48 h (100 = growth as untreated, 0 = no growth, -100 = all killed)
# CONDITION_SET: 10 µM unless noted
About 83,000 compounds went through this panel and 20% of them were active in at least one assay; those are over-represented in the sample as a whole.
Note: unit % is implicit; provide only the numeric part.

[
  {
    "MOLECULE": "CCCCC[C@@H]1Cc2cc(O)c(C(=O)O)c3c2[C@H](C[C@@]2(CCCO2)O3)O1",
    "growth / %": 103
  },
  {
    "MOLECULE": "COc1ccc(/C=C/c2nc(N3CCOCC3)c3cc(F)c(F)cc3n2)cc1OC",
    "growth / %": 28
  },
  {
    "MOLECULE": "Cc1ccc2nc(-c3c(CCCO)noc3N)[nH]c(=O)c2c1",
    "growth / %": 107
  },
  {
    "MOLECULE": "CSc1ccccc1C#C/C=C\\C#Cc1ccccc1N1CCCCC1=O",
    "growth / %": 104
  },
  {
    "MOLECULE": "O=C(CCCn1c(=O)c2sc3ccccc3c2n2nnc(-c3ccccc3)c12)NCCc1cnc[nH]1",
    "growth / %": -78.6
  },
  {
    "MOLECULE": "Cc1ccccc1C(=O)c1ccccc1C(=O)O",
    "growth / %": 96.3
  }
]

growth in this record for `CC(C)[C@H](CO)Nc1nc(Nc2ccc(C(=O)NCCNS(=O)(=O)c3cccc4c(N(C)C)cccc34)c(Cl)c2)c2ncn(C(C)C)c2n1` : 23.5

growth in this record for `O=C(CN1CCOCC1)Nc1ccc(-c2nc3ccccc3s2)cc1` : 101

growth in this record for `COc1ncc(-c2ccc3ncnc(Nc4cccc(Cl)c4)c3c2)cc1N(S(C)(=O)=O)S(C)(=O)=O` : 73.7

growth in this record for CC(=O)Nc1ccc(S(=O)(=O)N2C(=O)CCC2C(=O)Nc2ccccc2)cc1 (stereo not given) : 10.3

growth in this record for `N#Cc1ccc(NC(=O)c2ccc3cccnc3c2O)cc1` : 6.01

growth in this record for CCN1C(=O)N(CC)C2C1NN=c1s/c(=C\c3cccc(F)c3)c(=O)n12 (stereo not given) : 47.6

growth in this record for `COc1cc(/C=C/C(=O)c2ccccc2O)ccc1OCCCOc1cc2c(cc1OC)C(=O)N1CCC[C@H]1C=N2` : -7.64

growth in this record for CC1CCc2c(sc(NC(=O)CSc3nnc4ccccn34)c2C(N)=O)C1 (stereo not given) : 117

growth in this record for `Cc1cc(C)c(NC(=O)c2sc3nc4c(cc3c2N)CN(Cc2ccccc2)CC4)c(C)c1` : 40.2

growth in this record for `COC1=CC(c2ccc[nH]2)=N/C1=C\c1[nH]c(C)c(C(=O)CCCCC(=O)NCc2ccccc2)c1C` : 36.2

growth in this record for `O=C1c2ccccc2C(=O)c2c(N=Nc3sc(=O)[nH]c3S)cccc21` : 96.2

growth in this record for `COc1ccc(OC)c(C(=O)c2oc3ccc(Br)cc3c2N)c1` : 27.3

growth in this record for `CC(=O)Nc1nc(C(=O)N2N=C(C)/C(=C/c3ccc(Cl)cc3)C2=O)cs1` : 96.7

growth in this record for COc1c(NC[C@H]2OC(O)[C@H](O)[C@@H](O)[C@@H]2O)c(=O)c1=O (stereo not given in full) : 108
